- Assay Explanation: yeast display, Sf9 membrane polyspecificity reagent, FACS + sequencing; frameworks hold sequencing errors
Parameter Measured: polyreactivity (PSR sort gate)

Seq	polyreactivity (PSR sort gate)
QVQLEESGGGLVQAGGSLRLSCAASGSIFGAYTMGWYRQAPGKERELVAAISIGGSKNYADSVKGRFTISRDNAKNTVYLQMNSLKPEDTAVYYCNAEPDLEDWWWAIGLYDYWGQGTQVTVSS	high polyreactivity
QVQLVESGGGLVQAGGSLRLSCAASGFTFRDNAMGWYRQAPGKERELVAAITRGGSTYYADSVKGRFTISRDNAKNTVYLQMNSLKPEDTAVYYCAKALYRREYSSGGYYRFDYWGQGTQVTVSS	high polyreactivity
QVQLVESVGGLVQAGGSLSLSCAASGSTLSDNAMGWYRQAPGKERELVAAIRRVGSTNYADSVKGRFTISRDNAKNTVYLQMNSLKPEDTAVYYCAVRHVWPWQGYDYWGQGTQVTVSS	low polyreactivity
QVQLVESGGGLVQAGGSLRLSCAASGSIFLWNAMGWYRQAPGKERELVAAITWRGGSTYYADSVKGRFTISRDNAKNTVYLQMNSLKPEDTAVYYCAADSYDWMDYWGQGTQVTVSS	low polyreactivity

Lab note: next sequence to report on.
Form: sequence = "QVQLVESGGGLVQAGGSLRLSCAASGFTFAPYAMGWYRQAPGKERELVAAISSNGGSTYYADSVKGRFTISRDNAKNTVYLQMISMKPEYTAVYYCAVTSIGYTRYYYWGHGTQVTVSS" ; polyreactivity (PSR sort gate) = high polyreactivity
